- Test system: human LDL receptor gene promoter region coupled to firefly Luciferase reporter gene in Hep-G2 cell line
- Assay name: In vitro determination of LDL receptor induction using the Luciferase assay
- Format: cell-based
- Test conditions: test compound 1.5 μM; control (DMSO only)=100%; Hep-G2 reporter line
Readout kind: LDL-receptor induction (% of control) (%)
The answer is to be given in %; state only the numeric part.

Fill in: LDL-receptor induction (% of control) of CN1CCN(c2cc(N3CCC(Cc4ccccc4)CC3)c(S(C)(=O)=O)cc2C(=O)N2CCCCC2)CC1 is ___ 255

For the compound CN(C(=O)c1cc(S(=O)(=O)N(C)c2ccccc2)c(N2CCC(c3ccccc3)CC2)cc1NCCN1CCCC1)c1ccccc1 , what LDL-receptor induction (% of control) is on record? 346

Any idea what its LDL-receptor induction (% of control) is? The compound is CN1CCN(c2cc(N3CCC(c4ccccc4)CC3)c(S(=O)(=O)N3CCCCC3)cc2C(=O)N2CCCCC2)CC1 227

====

Kindly state LDL-receptor induction (% of control) for each of the entries shown.
- Test system: human LDL receptor gene promoter region coupled to firefly Luciferase reporter gene in Hep-G2 cell line
- Assay name: In vitro determination of LDL receptor induction using the Luciferase assay
- Type: cell-based
- Test conditions: test compound 1.5 μM; control (DMSO only)=100%; Hep-G2 reporter line

Quick one: LDL-receptor induction (% of control) for CN1CCN(c2cc(NCCCc3ccccc3)c(S(=O)(=O)N(C)c3ccccc3)cc2C(=O)N(C)c2ccccc2)CC1 ? 225% (1.5 μM)

Tell me the measured LDL-receptor induction (% of control) of CN1CCN(c2cc(NCCc3ccccc3)c(S(=O)(=O)N(C)c3ccccc3)cc2C(=O)N(C)c2ccccc2)CC1 , please. 276% (1.5 μM)

Fill blank: measured LDL-receptor induction (% of control) of the compound CN1CCN(c2cc(NC3CCN(Cc4ccccc4)CC3)c(S(C)(=O)=O)cc2C(=O)N(C)c2ccccc2)CC1 is ____. 176% (1.5 μM)

Data provenance is patent US6552048B2.
